SYSTEM TESTED: Cholinesterase (Homo sapiens)
Sequence (P06276 whole entry): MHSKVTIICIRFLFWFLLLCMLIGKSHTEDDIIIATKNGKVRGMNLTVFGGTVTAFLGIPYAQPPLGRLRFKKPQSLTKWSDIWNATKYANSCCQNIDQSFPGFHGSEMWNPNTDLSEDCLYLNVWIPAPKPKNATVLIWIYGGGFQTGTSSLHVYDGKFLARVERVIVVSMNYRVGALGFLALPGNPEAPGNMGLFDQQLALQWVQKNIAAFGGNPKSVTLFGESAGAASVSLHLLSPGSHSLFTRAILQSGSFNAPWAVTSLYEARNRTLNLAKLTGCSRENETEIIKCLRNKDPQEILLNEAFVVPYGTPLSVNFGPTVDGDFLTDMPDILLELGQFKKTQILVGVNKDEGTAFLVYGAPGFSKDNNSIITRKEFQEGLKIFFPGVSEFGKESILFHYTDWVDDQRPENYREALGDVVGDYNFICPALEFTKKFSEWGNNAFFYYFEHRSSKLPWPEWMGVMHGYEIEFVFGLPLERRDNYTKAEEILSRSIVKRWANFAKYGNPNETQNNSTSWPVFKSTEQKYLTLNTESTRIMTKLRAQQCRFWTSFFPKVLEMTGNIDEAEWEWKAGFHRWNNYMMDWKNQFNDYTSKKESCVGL
MEASURED METRIC: pIC50
One number for each entry, as −log10 of the molar value.

{"columns": ["MOLECULE", "pIC50"],
 "data": [
  ["C#CCN1CCC(CN(CCCOC)C(=O)c2ccc3ccccc3c2)CC1", 5.34],
  ["C#CCN1CCC(CN(CCCOC)S(=O)(=O)c2ccc3ccccc3c2)CC1", 6.55],
  ["C#CCN1CCC(CNS(=O)(=O)c2ccc3ccccc3c2)CC1", 5.59],
  ["C#CCN1CCCC(CN(CCCOC)C(=O)c2ccc3ccccc3c2)C1 (configuration not stated)", 5.06],
  ["C#CCN1CCC(CN(CCOC)C(=O)c2ccc3ccccc3c2)CC1", 5.39]
]}

// each listed molecule needs a value for pIC50
1. C#CCN1CCCC(CNC(=O)c2ccc3ccccc3c2)C1 (configuration not stated)
2. C#CCN1CCCC(CN(CCCOC)S(=O)(=O)c2ccc3ccccc3c2)C1 (configuration not stated)

Solution:
[4.63, 6.90]

// each listed molecule needs a value for pIC50
1. C#CCN1CCC(CNC(=O)c2ccc3ccccc3c2)CC1
2. C#CCN1CCCC(CN(CCOC)C(=O)c2ccc3ccccc3c2)C1 (configuration not stated)

Solution:
1: 4.26; 2: 5.48

// each listed molecule needs a value for pIC50
1. C#CCN1CCCC(CN(CCOC)S(=O)(=O)c2ccc3ccccc3c2)C1 (configuration not stated)
2. C#CCN1CCCC(CNS(=O)(=O)c2ccc3ccccc3c2)C1 (configuration not stated)
3. C#CCN1CCC(CN(CCOC)S(=O)(=O)c2ccc3ccccc3c2)CC1

Solution:
6.86
5.91
6.42
